# credit: patent US5629343A

# system.under.test: stromelysin (Homo sapiens, UniProt P08254)
# Sequence (P08254 100-477): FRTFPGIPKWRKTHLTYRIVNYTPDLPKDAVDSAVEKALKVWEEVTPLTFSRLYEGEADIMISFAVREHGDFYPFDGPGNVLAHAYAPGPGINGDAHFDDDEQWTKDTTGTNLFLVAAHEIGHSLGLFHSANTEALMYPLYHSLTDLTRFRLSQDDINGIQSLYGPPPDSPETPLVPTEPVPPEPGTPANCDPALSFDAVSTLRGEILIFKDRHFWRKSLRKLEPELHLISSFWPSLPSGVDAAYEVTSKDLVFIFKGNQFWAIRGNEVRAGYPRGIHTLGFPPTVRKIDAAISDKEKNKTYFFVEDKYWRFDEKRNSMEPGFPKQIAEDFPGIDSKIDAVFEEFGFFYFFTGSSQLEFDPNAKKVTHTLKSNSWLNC
# protocol.text: Inhibition of stromelysin: hydrolysis of substance P, semicontinuous HPLC-based assay
# Type: biochemical
# assay.context: lower Rf isomer (diastereomer); substrate substance P; read-out: IC50 ± S.E. Lower Rf isomer
endpoint: IC50 (nM)

- compound: "CC(C)C[C@H](NC(=O)C(CS)CCc1ccccc1)C(=O)NCc1ccccc1 (some centres unmarked)"
  numeric.result: 2500
- compound: "O=C(N[C@@H](Cc1ccccc1)C(=O)Nc1ccccc1)C(CS)CCc1ccccc1 (some centres unmarked)"
  numeric.result: 2200

[I] NC(=O)[C@H](Cc1ccccc1)NC(=O)C(CS)CCc1ccccc1 (some centres unmarked)
[II] CC(C)C[C@H](NC(=O)C(CS)CCc1ccccc1)C(=O)Nc1ccccc1 (some centres unmarked)
[III] CC(C)C[C@H](NC(=O)C(CS)CCc1ccccc1)C(N)=O (some centres unmarked)
Query: rank_up(items): orders items by reported IC50 in ascending numerical order. Arrange the labels as the request states and list them.
Result: II, III, I
(II: 490 nM, III: 960 nM, I: 1900 nM)

---

# system.under.test: stromelysin (Homo sapiens, UniProt P08254)
# protocol.text: Inhibition of stromelysin: hydrolysis of substance P, semicontinuous HPLC-based assay
# Type: biochemical
# assay.context: higher Rf isomer (diastereomer); substrate substance P; read-out: IC50 ± S.E. Higher Rf isomer
pIC50: −log10 of the molar value.
endpoint: pIC50

- compound: "O=C(O)CCNC(=O)[C@H](Cc1ccccc1)NC(=O)C(CS)CCc1ccccc1 (stereo partly drawn) [Compound 1h]"
  numeric.result: 5.39
- compound: "O=C(N[C@@H](Cc1ccccc1)C(=O)Nc1ccccc1)C(CS)CCc1ccccc1 (stereo partly drawn) [Compound 1f]"
  numeric.result: 5.96
- compound: "CC(C)C[C@H](NC(=O)C(CS)CCc1ccccc1)C(N)=O (stereo partly drawn) [Compound 1a]"
  numeric.result: 5.48

[P] NC(=O)[C@H](Cc1ccccc1)NC(=O)C(CS)CCc1ccccc1 (stereo partly drawn) [Compound 1e]
[Q] CC(C)C[C@H](NC(=O)C(CS)CCc1ccccc1)C(=O)Nc1ccccc1 (stereo partly drawn) [Compound 1b]
[R] CC(C)C[C@H](NC(=O)C(CS)CCc1ccccc1)C(=O)NCc1ccccc1 (stereo partly drawn) [Compound 1c]
Query: Descending sort on pIC50 required. Arrange the labels as the request states and list them.
Result: Q, P, R
(Q: 5.80, P: 5.51, R: 5.14)
